tested-system: T7 RNA polymerase (UniProt P00573 1-883)
Sequence (P00573 whole entry): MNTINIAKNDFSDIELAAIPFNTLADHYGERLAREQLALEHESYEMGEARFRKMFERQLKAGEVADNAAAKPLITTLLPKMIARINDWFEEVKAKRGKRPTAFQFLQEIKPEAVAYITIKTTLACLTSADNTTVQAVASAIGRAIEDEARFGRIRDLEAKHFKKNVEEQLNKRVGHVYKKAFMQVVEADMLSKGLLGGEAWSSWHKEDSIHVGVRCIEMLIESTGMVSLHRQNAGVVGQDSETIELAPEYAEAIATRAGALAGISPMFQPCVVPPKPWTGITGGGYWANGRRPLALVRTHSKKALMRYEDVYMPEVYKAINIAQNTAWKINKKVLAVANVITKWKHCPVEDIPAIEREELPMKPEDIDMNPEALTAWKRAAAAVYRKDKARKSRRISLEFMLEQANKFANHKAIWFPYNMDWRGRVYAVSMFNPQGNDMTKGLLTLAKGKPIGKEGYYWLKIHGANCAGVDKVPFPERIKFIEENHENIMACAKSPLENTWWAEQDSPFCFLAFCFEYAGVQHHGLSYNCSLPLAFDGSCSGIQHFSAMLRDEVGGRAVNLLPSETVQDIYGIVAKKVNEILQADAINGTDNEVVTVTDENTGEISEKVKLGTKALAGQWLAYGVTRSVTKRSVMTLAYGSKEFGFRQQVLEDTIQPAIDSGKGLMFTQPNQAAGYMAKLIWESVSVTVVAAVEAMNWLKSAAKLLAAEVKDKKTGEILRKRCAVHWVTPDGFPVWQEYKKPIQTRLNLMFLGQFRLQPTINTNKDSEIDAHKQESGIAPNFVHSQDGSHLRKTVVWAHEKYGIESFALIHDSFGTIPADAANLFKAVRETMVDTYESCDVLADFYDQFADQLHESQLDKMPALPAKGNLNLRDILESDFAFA
test-details: filter binding
readout-kind: Kd (nM)
Numbers only, in nM.

Dear colleague, could you please provide Kd for the binders listed below?
1. T06 (structured_RNA) RNA: GAGGAUGGCAGCGGAGAGGAAUGGUGUAGUGUAAGUCAAUUCUACUUUCGUUGCAGCCCACACCACUCUCC
2. GCGUAAGUCAAUUCCACUAUCAUUGCUGC (structured_RNA) [T230-29]

Result:
1. 8
2. 2.9

Request: Give a short answer stating reported Kd for GUGUAGUGUAAGUCAAUUCUACUUUCGUUGCAGCCCAC (structured_RNA) [T06-38] .
Result: 10.5
